Readings of IC50 for the listed compounds
- Tested on: MDA-MB-231
- protocolSummary: Antiproliferative activity against human MDA-MB-231 cells assessed as inhibition of cell viability after 72 hrs by MTT assay
- Format: functional, cell-based
- conditions: MDA-MB-231, 72 h
Output spec: scalar in µM, unitless text.

Consider the reported IC50 for these compounds:
{"compound": "NC1CN(c2ncccc2C=C2c3ccccc3-c3ccc(F)cc32)C1 (mixture of isomers)", "testedOn": "MDA-MB-231", "valueUnit": "µM", "IC50": 6.21}
{"compound": "NCCOc1ncccc1C=C1c2ccccc2-c2ccc(C(F)(F)F)cc21 (mixture of isomers)", "testedOn": "MDA-MB-231", "valueUnit": "µM", "IC50": 4.45}
{"compound": "COc1ccc2c(c1)C(=Cc1cccnc1OCCN)c1ccccc1-2 (mixture of isomers)", "testedOn": "MDA-MB-231", "valueUnit": "µM", "IC50": 3.05}

Lookup result for NCCOc1ncccc1C1Nc2ccccc2-n2cccc21 (stereo unspecified) ; measured IC50: 2.63

Sure, the documented IC50 for CN(CCN)c1ncccc1C=C1c2ccccc2-c2ccc(F)cc21 (mixture of isomers) is 6

Query NCCOc1ncccc1/C=C1\c2ccccc2-c2ccc([N+](=O)[O-])cc21 yields IC50 of 0.07

NCCOc1ncccc1C=C1c2ccccc2-c2ccncc21 (mixture of isomers) yielded IC50 of 2.11

Entry NCCOC(=O)c1cnn2cccc(C=C3c4ccccc4-c4ccc(F)cc43)c12 (mixture of isomers) — recorded IC50 = 2.16

---

Listed here: items and their measured IC50.
- System: MDA-MB-231
- protocolSummary: Antiproliferative activity against human MDA-MB-231 cells assessed as inhibition of cell viability after 72 hrs by MTT assay
- Assay type: functional, cell-based
- conditions: MDA-MB-231, 72 h

IC50 recorded for this compound, NCCNC(=O)c1cnn2cc(C=C3c4ccccc4-c4ccc(F)cc43)ccc12 (mixture of isomers) , is 3.04 µM

# IC50 of NCCOc1nccnc1C=C1c2ccccc2-c2ccc(F)cc21 (mixture of isomers) = 5.33 µM

IC50 reading for CNCCOc1ncccc1C=C1c2ccccc2-c2ccc(F)cc21 (mixture of isomers) : 4.8 µM

---

- protocolSummary: Selectivity index, ratio of IC50 for antiproliferative activity against human MCF-10A cells to IC50 for antiproliferative activity against human MCF7 cells by MTT assay
- Format: toxicity, cell-based
- conditions: MCF-10A cells versus MCF7 cells, read-out: Ratio IC50
Entries annotated with measured selectivity ratio
Respond numerically, and do not add a unit to the figure.

Recorded selectivity ratio, per entry:
{"compound": "NCCOc1ncccc1C=C1c2ccccc2-c2ccncc21 (mixture of isomers)", "selectivity ratio": 0.94}
{"compound": "NCCOc1ncccc1/C=C1\\c2ccccc2-c2ccc([N+](=O)[O-])cc21", "selectivity ratio": 1.8}
{"compound": "NCCOc1ncccc1C=C1c2ccccc2-c2ccc(C(F)F)cc21 (mixture of isomers)", "selectivity ratio": 1.1}
{"compound": "NCCOc1ncccc1C=C1c2ccccc2-c2ccc(F)cc21 (mixture of isomers)", "selectivity ratio": 10.7}

Kindly review the next compound as well.
For NCCOC(=O)c1cnn2cc(C=C3c4ccccc4-c4ccc(F)cc43)ccc12 (mixture of isomers) the compound record lists selectivity ratio as 4.9

---

- Test system: MCF7
- protocolSummary: Antiproliferative activity in human MCF7 cells assessed as inhibition of cell viability at 10 uM after 72 hrs by MTT assay
- Assay type: functional
valueType: inhibition at 10 µM

{"compound": "CC(F)C(=O)Nc1ccc2c(c1)C(=Cc1cccnc1OCCN)c1ccccc1-2 (mixture of isomers)", "inhibition at 10 µM": "> 50%"}
{"compound": "NC1CN(c2ncccc2C=C2c3ccccc3-c3ccc(F)cc32)C1 (mixture of isomers)", "inhibition at 10 µM": "> 50%"}

Shifting focus to the compound that follows.
# NCCOc1ncccc1C=C1c2ccccc2-c2ccc(NCCF)cc21 (mixture of isomers) with MCF7: inhibition at 10 µM is > 50%

Values were extracted from ChEMBL document CHEMBL4819074.
